- Species: Homo sapiens
- experiment: Selectivity index, ratio of Ki for displacement of [3H] Spiperone from human D2L receptor expressed in CHO cells to Ki for displacement of [3H] Spiperone from human D4.4 receptor expressed in CHO cells
- Type: cell-based
value type: Ratio Ki
Answer with the value's number alone.

stdin: Any idea what Ratio Ki was measured for C=CCN(NC(=O)NCCCN1CCN(c2ccccc2OC)CC1)c1ccc(OC)cc1 ?
stdout: 3

stdin: Any idea what Ratio Ki was measured for COc1ccc(N(Cc2cccc(OC)c2)NC(=O)NCCCN2CCN(c3ccccc3OC)CC2)cc1 ?
stdout: 4.5

stdin: Any idea what Ratio Ki was measured for O=C(NCCCN1CCN(c2ncccn2)CC1)NN(Cc1ccc(F)cc1)c1ccccc1 ?
stdout: 23

stdin: Any idea what Ratio Ki was measured for O=C(NCCCN1CCN(c2ccc(I)cc2)CC1)NN(Cc1ccccc1)c1ccccc1 ?
stdout: 33

stdin: Any idea what Ratio Ki was measured for COc1ccccc1N1CCN(CCCNC(=O)NN(Cc2ccc(F)cc2)c2ccccc2)CC1 ?
stdout: 250

====

- Organism: Homo sapiens
- experiment: Selectivity index, ratio of Ki for displacement of [3H] Spiperone from human D2S receptor expressed in CHO cells to Ki for displacement of [3H] Spiperone from human D4.4 receptor expressed in CHO cells
- Format: cell-based
value type: Ratio Ki

stdin: Any idea what Ratio Ki was measured for C=CCN(NC(=O)NCCCN1CCN(c2ccccc2OC)CC1)c1ccc(OC)cc1 ?
stdout: 5.6

stdin: Any idea what Ratio Ki was measured for COc1ccc(N(Cc2cccc(OC)c2)NC(=O)NCCCN2CCN(c3ccccc3OC)CC2)cc1 ?
stdout: 3.3

stdin: Any idea what Ratio Ki was measured for COc1ccc(N(Cc2ccccc2)NC(=O)NCCCN2CCN(c3ccccc3OC)CC2)cc1 ?
stdout: 11

stdin: Any idea what Ratio Ki was measured for COc1ccccc1N1CCN(CCCNC(=O)NN(Cc2ccc(F)cc2)c2ccc(F)cc2)CC1 ?
stdout: 6.5

stdin: Any idea what Ratio Ki was measured for COc1ccc(N(Cc2cccc(F)c2)NC(=O)NCCCN2CCN(c3ccccc3OC)CC2)cc1 ?
stdout: 5.6

stdin: Any idea what Ratio Ki was measured for COc1ccccc1N1CCN(CCCNC(=O)NN(Cc2ccccc2)c2ccc(Br)cc2)CC1 ?
stdout: 10

stdin: Any idea what Ratio Ki was measured for COc1ccccc1N1CCN(CCCNC(=O)/N=N/c2ccc(F)cc2)CC1 ?
stdout: 2.6

stdin: Any idea what Ratio Ki was measured for O=C(NCCCN1CCN(c2ncccn2)CC1)NN(Cc1ccc(F)cc1)c1ccccc1 ?
stdout: 16

stdin: Any idea what Ratio Ki was measured for COc1ccccc1N1CCN(CCCCNC(=O)/N=N/c2ccc(F)cc2)CC1 ?
stdout: 0.36

stdin: Any idea what Ratio Ki was measured for COc1ccccc1N1CCN(CCCNC(=O)NN(Cc2ccc(C#N)cc2)c2ccc(Cl)cc2Cl)CC1 ?
stdout: 7.8

stdin: Any idea what Ratio Ki was measured for COc1ccccc1N1CCN(CCCNC(=O)NN(Cc2ccc(F)cc2)c2ccccc2)CC1 ?
stdout: 200

====

- measured target: Beta-2 adrenergic receptor (Homo sapiens)
- Sequence (P07550 whole entry): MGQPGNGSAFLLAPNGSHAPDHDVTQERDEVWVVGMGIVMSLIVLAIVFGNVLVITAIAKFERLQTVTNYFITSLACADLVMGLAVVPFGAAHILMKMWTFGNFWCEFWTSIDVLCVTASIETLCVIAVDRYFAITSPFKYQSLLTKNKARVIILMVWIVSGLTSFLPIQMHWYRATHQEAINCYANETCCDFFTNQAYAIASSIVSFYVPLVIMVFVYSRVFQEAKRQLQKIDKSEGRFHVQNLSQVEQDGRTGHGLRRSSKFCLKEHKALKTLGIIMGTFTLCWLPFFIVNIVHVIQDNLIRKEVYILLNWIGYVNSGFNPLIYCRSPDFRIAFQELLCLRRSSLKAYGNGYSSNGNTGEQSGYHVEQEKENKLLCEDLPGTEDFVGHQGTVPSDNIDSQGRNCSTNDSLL
value type: pKi
pKi (log units): -log10 of the concentration in mol/L.

stdin: pKi of COc1ccccc1N1CCN(CCCNC(=O)NN(Cc2ccccc2)c2ccccc2)CC1 on Beta-2 adrenergic receptor (Homo sapiens)?
stdout: 5.74

====

Assignment: determine reported pKi for the given compounds.
- measured target: Delta-type opioid receptor (Homo sapiens, UniProt P41143)
- Sequence (P41143 whole entry): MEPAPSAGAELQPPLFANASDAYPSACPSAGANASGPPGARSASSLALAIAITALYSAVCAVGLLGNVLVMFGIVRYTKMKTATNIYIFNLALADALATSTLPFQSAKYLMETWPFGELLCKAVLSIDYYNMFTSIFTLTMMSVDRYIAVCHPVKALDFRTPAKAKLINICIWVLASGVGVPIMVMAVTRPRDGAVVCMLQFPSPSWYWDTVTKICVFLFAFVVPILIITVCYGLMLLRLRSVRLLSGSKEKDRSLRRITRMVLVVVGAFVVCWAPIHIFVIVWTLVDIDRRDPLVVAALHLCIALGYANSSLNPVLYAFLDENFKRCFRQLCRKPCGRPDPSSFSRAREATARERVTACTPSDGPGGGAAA
- experiment: Displacement of [3H] diprenorphine from delta opioid receptor (unknown origin)
pKi (log units): -log10 of the concentration in mol/L.

stdin: Any idea what pKi was measured for COc1ccccc1N1CCN(CCCNC(=O)NN(Cc2ccc(F)cc2)c2ccccc2)CC1 ?
stdout: 4.72

stdin: Any idea what pKi was measured for COc1ccccc1N1CCN(CCCNC(=O)NN(Cc2ccccc2)c2ccccc2)CC1 ?
stdout: 5.00

====

- measured target: Muscarinic acetylcholine receptor M1 (Homo sapiens, UniProt P11229)
- Sequence (P11229 whole entry): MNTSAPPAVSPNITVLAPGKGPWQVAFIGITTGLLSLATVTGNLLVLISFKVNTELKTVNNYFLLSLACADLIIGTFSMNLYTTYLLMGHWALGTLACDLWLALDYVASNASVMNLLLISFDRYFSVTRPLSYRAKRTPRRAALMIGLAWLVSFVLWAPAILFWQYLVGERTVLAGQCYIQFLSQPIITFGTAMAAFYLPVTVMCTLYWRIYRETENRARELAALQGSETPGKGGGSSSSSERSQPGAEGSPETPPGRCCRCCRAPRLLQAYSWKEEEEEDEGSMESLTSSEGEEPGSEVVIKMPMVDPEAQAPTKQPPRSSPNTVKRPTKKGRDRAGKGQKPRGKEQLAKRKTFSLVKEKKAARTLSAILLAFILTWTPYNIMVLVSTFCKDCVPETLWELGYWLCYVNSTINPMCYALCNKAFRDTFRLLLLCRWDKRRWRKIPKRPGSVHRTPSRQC
value type: Ki (µM)
Kindly provide the numeric value in µM only, without the unit symbol.

stdin: Any idea what Ki was measured for COc1ccccc1N1CCN(CCCNC(=O)NN(Cc2ccccc2)c2ccccc2)CC1 ?
stdout: 25

====

- measured target: UniProtKB P14416
- Sequence (P14416 whole entry): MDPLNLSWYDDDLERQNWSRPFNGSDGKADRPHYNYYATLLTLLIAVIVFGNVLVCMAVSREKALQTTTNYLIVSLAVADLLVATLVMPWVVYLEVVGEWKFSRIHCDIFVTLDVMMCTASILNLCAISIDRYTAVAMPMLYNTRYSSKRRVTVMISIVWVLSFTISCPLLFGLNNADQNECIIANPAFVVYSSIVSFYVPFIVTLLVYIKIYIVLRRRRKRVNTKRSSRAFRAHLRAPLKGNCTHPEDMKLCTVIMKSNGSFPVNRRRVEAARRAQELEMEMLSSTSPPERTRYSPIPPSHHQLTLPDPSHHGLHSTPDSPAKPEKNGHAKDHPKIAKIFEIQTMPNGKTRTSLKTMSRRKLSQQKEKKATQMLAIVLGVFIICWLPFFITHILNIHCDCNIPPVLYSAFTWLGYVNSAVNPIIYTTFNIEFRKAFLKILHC
- experiment: Displacement of [3H] Spiperone from human D2L receptor expressed in CHO cells by competitive radioligand binding assay
- Assay type: cell-based
value type: Ki (nM)
Kindly provide the numeric value in nM only, without the unit symbol.

stdin: Any idea what Ki was measured for COc1ccccc1N1CCN(CCCNC(=O)/N=N/c2ccc(F)cc2)CC1 ?
stdout: 110

stdin: Any idea what Ki was measured for COc1cccc(CN(NC(=O)NCCCN2CCN(c3ccccc3OC)CC2)c2ccc(F)cc2)c1 ?
stdout: 110

stdin: Any idea what Ki was measured for COc1ccccc1N1CCN(CCCNC(=O)NN(Cc2ccc(-c3ccccc3)cc2)c2ccc(F)cc2)CC1 ?
stdout: 140

stdin: Any idea what Ki was measured for COc1ccc(N(Cc2cccc(OC)c2)NC(=O)NCCCN2CCN(c3ccccc3OC)CC2)cc1 ?
stdout: 150

stdin: Any idea what Ki was measured for COc1ccccc1N1CCN(CCCNC(=O)NN(Cc2ccccc2)c2ccc(Cl)cc2)CC1 ?
stdout: 32

stdin: Any idea what Ki was measured for COc1ccc(N(Cc2ccc(C#N)cc2)NC(=O)NCCCN2CCN(c3ccccc3OC)CC2)cc1 ?
stdout: 250

stdin: Any idea what Ki was measured for O=C(NCCCN1CCN(c2ccc(Cl)cc2)CC1)NN(Cc1ccccc1)c1ccccc1 ?
stdout: 640

stdin: Any idea what Ki was measured for COc1ccccc1N1CCN(CCCNC(=O)NN(Cc2cccc(F)c2)c2ccc(F)cc2)CC1 ?
stdout: 73

stdin: Any idea what Ki was measured for COc1ccccc1N1CCN(CCCNC(=O)NN(Cc2ccc(F)cc2)c2ccccc2)CC1 ?
stdout: 140

stdin: Any idea what Ki was measured for COc1ccc(N(Cc2ccccc2)NC(=O)NCCCN2CCN(c3ccccc3OC)CC2)cc1 ?
stdout: 45

stdin: Any idea what Ki was measured for COc1ccc(N(Cc2ccccc2F)NC(=O)NCCCN2CCN(c3ccccc3OC)CC2)cc1 ?
stdout: 42

stdin: Any idea what Ki was measured for O=C(NCCCN1CCN(c2ncccn2)CC1)NN(Cc1ccccc1)c1ccccc1 ?
stdout: 580

stdin: Any idea what Ki was measured for COc1ccccc1N1CCN(CCNC(=O)NN(Cc2ccccc2)c2ccc(F)cc2)CC1 ?
stdout: 100

stdin: Any idea what Ki was measured for O=C(NCCCN1CCN(c2ccc(Cl)cc2)CC1)NN(Cc1ccc(F)cc1)c1ccccc1 ?
stdout: 500

stdin: Any idea what Ki was measured for Cc1cccc(C(=O)NCN2CCN(c3ccccc3C#N)CC2)c1 ?
stdout: 2300

stdin: Any idea what Ki was measured for COc1ccccc1N1CCN(CCCNC(=O)NN(Cc2ccc(C#N)cc2)c2ccc(F)cc2)CC1 ?
stdout: 210

stdin: Any idea what Ki was measured for COc1ccccc1N1CCN(CCCNC(=O)NN(Cc2ccccc2)c2ccc(Br)cc2)CC1 ?
stdout: 55

stdin: Any idea what Ki was measured for COc1ccc(N(Cc2ccc(F)cc2)NC(=O)NCCCN2CCN(c3ccccc3OC)CC2)cc1 ?
stdout: 160

stdin: Any idea what Ki was measured for COc1ccccc1N1CCN(CCNC(=O)/N=N/c2ccc(F)cc2)CC1 ?
stdout: 270

stdin: Any idea what Ki was measured for COc1ccccc1N1CCN(CCCCNC(=O)NN(Cc2ccccc2)c2ccc(F)cc2)CC1 ?
stdout: 160

stdin: Any idea what Ki was measured for COc1ccccc1N1CCN(CCCNC(=O)NN(Cc2ccccc2)c2ccccc2)CC1 ?
stdout: 77

====

Assignment: determine reported Ki for the given molecules.
- measured target: UniProtKB P14416
- experiment: Displacement of [3H] Spiperone from human D2L receptor expressed in CHO cells by competitive radioligand binding assay
- Format: cell-based
Kindly provide the numeric value in nM only, without the unit symbol.

stdin: Any idea what Ki was measured for COc1ccccc1N1CCN(CCCNC(=O)NN(Cc2ccccc2F)c2ccc(F)cc2)CC1 ?
stdout: 92

stdin: Any idea what Ki was measured for O=C(NCCN1CCN(c2ccc(I)cc2)CC1)NN(Cc1ccccc1)c1ccccc1 ?
stdout: 490

stdin: Any idea what Ki was measured for COc1ccccc1N1CCN(CCCNC(=O)NN(Cc2ccccc2F)c2ccc(Br)cc2)CC1 ?
stdout: 45

stdin: Any idea what Ki was measured for O=C(NCCCN1CCN(c2ncccn2)CC1)NN(Cc1ccc(F)cc1)c1ccccc1 ?
stdout: 430

stdin: Any idea what Ki was measured for COc1ccccc1N1CCN(CCCNC(=O)NN(Cc2ccccc2)c2ccc(F)cc2)CC1 ?
stdout: 6.6

stdin: Any idea what Ki was measured for C=CCN(NC(=O)NCCCN1CCN(c2ccccc2OC)CC1)c1ccc(OC)cc1 ?
stdout: 180

stdin: Any idea what Ki was measured for COc1ccccc1N1CCN(CCCNC(=O)NN(Cc2ccccc2F)c2ccc(Cl)cc2)CC1 ?
stdout: 41

stdin: Any idea what Ki was measured for COc1ccccc1N1CCN(CCCNC(=O)NN(Cc2ccc(F)cc2)c2ccc(F)cc2)CC1 ?
stdout: 77

stdin: Any idea what Ki was measured for O=C(NCCCN1CCN(c2ccc(Br)cc2)CC1)NN(Cc1ccc(F)cc1)c1ccccc1 ?
stdout: 790

stdin: Any idea what Ki was measured for O=C(NCCN1CCN(c2ccc(Br)cc2)CC1)NN(Cc1ccccc1)c1ccccc1 ?
stdout: 390
